test: Cytotoxicity against human MT4 cells after 5 days by MTT assay; assay type: cell-based
Recorded CC50 at 120 h for the following compounds

For orientation, consider the following solved cases.
molecular.string	obs.value
O=C1Nc2ccc(Cl)cc2[C@@](C#CC2CC2)(C(F)(F)F)O1	> 6.34 µM
COc1nc(Nc2c(C)cc(C)cc2C)nc(NC2CCN(Cc3ccncc3)CC2)n1	30.9 µM

# ---- query compound ----
Qu. Find the recorded CC50 at 120 h belonging to Cc1ccnc2c1NC(=O)c1cccnc1N2C1CC1 and report it.
Ans. > 15 µM

----------
test system: Human immunodeficiency virus 1; assay: Fold resistance, ratio of EC50 for HIV1 RES056 harboring reverse transcriptase K103N/Y181C RT mutant to EC50 for wild type HIV1 3B; assay type: functional
property.measured: Ratio EC50

For orientation, consider the following solved cases.
molecular.string	Ratio EC50
CCOC(=O)c1ccc(CN2CCC(Nc3nc(NC)nc(Nc4c(C)cc(C)cc4C)n3)CC2)cc1	>297
Cc1cc(C)c(Nc2nc(N)nc(NC3CCN(Cc4ccc([N+](=O)[O-])cc4)CC3)n2)c(C)c1	>439.1
CCOC(=O)c1ccc(CN2CCC(Nc3nc(Nc4c(C)cc(C)cc4C)nc(OC)n3)CC2)cc1	>576.6

# ---- query compound ----
Qu. Find the recorded Ratio EC50 belonging to CCOC(=O)c1ccc(CN2CCC(Nc3nc(N)nc(Nc4c(C)cc(C)cc4C)n3)CC2)cc1 and report it.
Ans. >511.6

----------
test: Selectivity index, ratio of CC50 for human MT4 cells to EC50 for wild type HIV1 3B; format: toxicity, cell-based; conditions: read-out: Ratio CC50/EC50
property.measured: selectivity ratio
Would you mind answering with just the numeric figure?

molecular.string	obs.value
Cc1cc(C)c(Nc2nc(N)nc(NC3CCN(Cc4ccc(S(C)(=O)=O)cc4)CC3)n2)c(C)c1	911
CNc1nc(Nc2c(C)cc(C)cc2C)nc(NC2CCN(Cc3ccc(S(N)(=O)=O)cc3)CC2)n1	2120

Qu. Find the recorded selectivity ratio belonging to COc1nc(Nc2c(C)cc(C)cc2C)nc(NC2CCN(Cc3ccncc3)CC2)n1 and report it.
Ans. 2320

----------
test system: Human immunodeficiency virus 1; experiment: Antiviral activity against HIV1 RES056 harboring reverse transcriptase K103N/Y181C mutant infected in human MT4 cells assessed as inhibition of virus-induced cytopathic effect after 5 days by MTT assay; type: functional, organism-based; details: Human immunodeficiency virus 1, RES056, MT4, 120 h
property.measured: EC50

Qu. Find the recorded EC50 belonging to Cc1cc(C)c(Nc2nc(N)nc(NC3CCN(Cc4ccc(C#N)cc4)CC3)n2)c(C)c1 and report it.
Ans. > 3.26 µM

----------
Recorded EC50 for the following compounds
system: Human immunodeficiency virus 1; assay: Antiviral activity against HIV1 RES056 harboring reverse transcriptase K103N/Y181C mutant infected in human MT4 cells assessed as inhibition of virus-induced cytopathic effect after 5 days by MTT assay; assay type: functional, organism-based; settings: Human immunodeficiency virus 1, RES056, MT4, 120 h

For orientation, consider the following solved cases.
compound	property.measured	obs.value
Cc1ccnc2c1NC(=O)c1cccnc1N2C1CC1 [NEVIRAPINE]	EC50	> 15 µM
CCOC(=O)c1ccc(CN2CCC(Nc3nc(Nc4c(C)cc(C)cc4C)nc(OC)n3)CC2)cc1	EC50	> 8.48 µM
Cc1cc(C)c(Nc2nc(N)nc(NC3CCN(Cc4ccc([N+](=O)[O-])cc4)CC3)n2)c(C)c1	EC50	> 3.46 µM
CCOC(=O)c1ccc(CN2CCC(Nc3nc(NC)nc(Nc4c(C)cc(C)cc4C)n3)CC2)cc1	EC50	> 4.95 µM

Qu. Find the recorded EC50 belonging to CCOC(=O)c1ccc(CN2CCC(Nc3nc(N)nc(Nc4c(C)cc(C)cc4C)n3)CC2)cc1 and report it.
Ans. > 5.91 µM

Qu. Find the recorded EC50 belonging to CC(C)Nc1cccnc1N1CCN(C(=O)c2cc3cc(NS(C)(=O)=O)ccc3[nH]2)CC1.CS(=O)(=O)O [DELAVIRDINE MESYLATE] and report it.
Ans. > 36.2 µM

Qu. Find the recorded EC50 belonging to COc1nc(Nc2c(C)cc(C)cc2C)nc(NC2CCN(Cc3ccc(S(C)(=O)=O)cc3)CC2)n1 and report it.
Ans. ≥ 1.59 µM
